biological target: Grb2 SH2 (UniProt P62993); assay: SH2 binding enrichment of the phosphorylated peptide, bacterial display (enrichment ratio); higher = better substrate or ligand; peptides without Tyr show the background
MEASURE NAME: SH2 binding enrichment

LLTALYFISRG [KCNH2_Y780] :: 2.34
IEPVIYVVQRR [ANOS1_Y217] :: 0.512

1 = LEQGEYALRSH [HADHB_Y244_D242G]
2 = LPVHFYGHVEH [PYGM_Y204]
Response body: label of entry with the larger SH2 binding enrichment; valid values 1 , 2 . Give the chosen item's label as your response. 2

* * *

target: EPHB2 (UniProt P29323); experiment: phosphorylation enrichment, bacterial display (enrichment ratio); higher = better substrate or ligand; peptides without Tyr show the background
Sequence (P29323 whole entry, looked up): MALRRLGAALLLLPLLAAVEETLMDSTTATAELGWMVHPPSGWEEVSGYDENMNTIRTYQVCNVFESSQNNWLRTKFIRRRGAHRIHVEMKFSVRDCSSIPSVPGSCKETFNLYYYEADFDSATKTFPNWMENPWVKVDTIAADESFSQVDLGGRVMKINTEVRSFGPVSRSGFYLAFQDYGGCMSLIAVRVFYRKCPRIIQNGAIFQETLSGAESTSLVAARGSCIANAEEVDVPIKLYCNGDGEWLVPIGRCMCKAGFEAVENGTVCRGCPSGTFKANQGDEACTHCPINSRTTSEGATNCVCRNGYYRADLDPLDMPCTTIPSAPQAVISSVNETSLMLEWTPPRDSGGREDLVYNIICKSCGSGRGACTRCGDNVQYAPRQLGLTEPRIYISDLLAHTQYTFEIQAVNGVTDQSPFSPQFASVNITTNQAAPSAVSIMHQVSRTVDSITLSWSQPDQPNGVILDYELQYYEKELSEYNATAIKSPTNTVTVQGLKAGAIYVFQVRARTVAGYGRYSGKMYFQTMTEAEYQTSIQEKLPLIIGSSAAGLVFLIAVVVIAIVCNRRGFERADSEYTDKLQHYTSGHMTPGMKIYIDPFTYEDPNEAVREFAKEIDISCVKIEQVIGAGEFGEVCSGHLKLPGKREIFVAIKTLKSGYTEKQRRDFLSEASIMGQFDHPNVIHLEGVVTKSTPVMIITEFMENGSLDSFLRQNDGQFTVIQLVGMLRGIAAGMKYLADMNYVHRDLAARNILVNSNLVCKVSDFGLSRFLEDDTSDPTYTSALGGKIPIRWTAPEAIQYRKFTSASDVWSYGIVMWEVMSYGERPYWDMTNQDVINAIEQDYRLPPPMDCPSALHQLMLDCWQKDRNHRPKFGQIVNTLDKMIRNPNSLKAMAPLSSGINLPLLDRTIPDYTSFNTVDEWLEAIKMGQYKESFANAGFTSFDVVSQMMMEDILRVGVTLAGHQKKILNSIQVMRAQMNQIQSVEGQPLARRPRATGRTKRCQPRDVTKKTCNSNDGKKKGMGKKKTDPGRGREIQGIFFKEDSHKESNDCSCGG
This listing pairs sequences with measured phosphorylation enrichment.
// response body must contain only the number

Here's what some known entries look like.
PLGVLYKVKVY [PTS_Y128_V124L] :: 0.626
VAVVQYSGMGQ [COL6A1_Y878_T881M] :: 0.363
PAGSGYPAYLG [ATP6V1A_Y374_D371G] :: 0.638

Give its phosphorylation enrichment value. Item: SLAARYFNWVS [FLT4_Y1230_YF] 0.698

* * *

molecular target: MERTK (UniProt Q12866); test: phosphorylation enrichment, bacterial display (enrichment ratio); higher = better substrate or ligand; peptides without Tyr show the background
Sequence (Q12866 whole entry, looked up): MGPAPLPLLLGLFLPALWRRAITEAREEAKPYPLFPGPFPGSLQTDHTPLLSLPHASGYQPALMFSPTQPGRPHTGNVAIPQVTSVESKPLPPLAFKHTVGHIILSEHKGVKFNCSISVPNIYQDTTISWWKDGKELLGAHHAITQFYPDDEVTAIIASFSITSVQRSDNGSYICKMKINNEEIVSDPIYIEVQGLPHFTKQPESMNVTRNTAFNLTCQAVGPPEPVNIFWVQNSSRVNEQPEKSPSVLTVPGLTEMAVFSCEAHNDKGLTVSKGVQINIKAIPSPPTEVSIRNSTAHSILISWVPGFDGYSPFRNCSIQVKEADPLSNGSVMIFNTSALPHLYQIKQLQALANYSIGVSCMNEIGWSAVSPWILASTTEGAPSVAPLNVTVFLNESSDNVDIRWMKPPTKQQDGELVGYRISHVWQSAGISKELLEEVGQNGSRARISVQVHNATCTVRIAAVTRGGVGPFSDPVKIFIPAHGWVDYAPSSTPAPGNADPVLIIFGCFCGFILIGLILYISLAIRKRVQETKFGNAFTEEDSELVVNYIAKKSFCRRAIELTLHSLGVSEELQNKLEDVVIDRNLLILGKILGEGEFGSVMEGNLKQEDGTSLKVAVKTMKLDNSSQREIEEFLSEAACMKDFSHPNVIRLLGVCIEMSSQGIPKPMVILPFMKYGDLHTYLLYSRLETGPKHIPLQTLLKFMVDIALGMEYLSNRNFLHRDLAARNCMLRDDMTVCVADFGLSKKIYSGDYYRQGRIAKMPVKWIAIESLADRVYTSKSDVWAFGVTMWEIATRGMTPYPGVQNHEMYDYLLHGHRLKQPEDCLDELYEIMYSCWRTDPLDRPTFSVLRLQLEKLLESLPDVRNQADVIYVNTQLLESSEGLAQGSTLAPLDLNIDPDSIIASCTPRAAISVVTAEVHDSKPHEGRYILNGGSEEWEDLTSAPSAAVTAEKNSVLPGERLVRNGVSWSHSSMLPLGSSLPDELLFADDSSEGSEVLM
MEASURE NAME: phosphorylation enrichment
// response body must contain only the number

NAGAFYVLSTL [FLVCR2_Y325_A326V] :: 0.705
IMAFFYMCDSA [CASD1_Y382_R386S_YF] :: 0.401
DSIRDYEDGTE [CLNS1A_Y214_M218T] :: 0.959
ESFRLYPPVPQ [CYP4B1_Y377] :: 0.404
TDEYEYDELIV [TGM1_Y136] :: 0.436
DEDYLYREELA [POR_Y575] :: 0.502

Continue with the sequence presented below.
Find phosphorylation enrichment (MERTK (UniProt Q12866)) for the entry IPTPAYQSSPA [PDCD6IP_Y727] 0.356

* * *

biological target: Grb2 SH2 (UniProt P62993); assay: SH2 binding enrichment of the phosphorylated peptide, bacterial display (enrichment ratio); higher = better substrate or ligand; peptides without Tyr show the background
MEASURE NAME: SH2 binding enrichment

CTTIHYNFKCN [TP53_Y234_M237K_YF] :: 1.23
FSPCDYQPCLA [TNS1_Y798_Y796C_YF] :: 0.883
GFPVRYTDVSN [DNMT3B_Y815_H814R] :: 0.96
YDGGCYEQLFV [MC4R_Y41_S36Y] :: 0.742
GVRLYYRVMES [RB1_Y454] :: 0.871
RRGTGYTLPLP [MAGEC3_Y152_S155P] :: 0.853
RSSGGYEPRGC [FUS_Y239_R244C] :: 0.913

* * *

This listing pairs sequences with measured phosphorylation enrichment.
tested on: c-Src; assay: phosphorylation enrichment, bacterial display (enrichment ratio); higher = better substrate or ligand; peptides without Tyr show the background
// response body must contain only the number

Here's what some known entries look like.
FGSRLYKFAFK [FANCD2_Y458_L456R_YF] :: 0.515
QPSALYEDRYL [ASS1_Y83_S79P] :: 0.942
RAIGYYSATSK [FAM120A_Y328] :: 0.593
DLEKTYNTFRS [B4GALNT2_Y538_A533D_YF] :: 1.75
IDPFTYTPFGS [CYP3A4_Y432_I431T_YF] :: 2.88
RLEGVYGNNID [PTEN_Y46_R47G] :: 1.26
SRIWVYNHYRC [BRCA2_Y2621_W2626C] :: 0.392
KLNNEHLELNY [MME_Y497_Y497H] :: 0.417

Find phosphorylation enrichment (c-Src) for the entry FSQQTYYPVSN [ABCD1_Y180_R182P] 4.37

Also need SKGYAYVHFDS [PABPC5_Y149] , thanks. 0.479

Also need QEIATYRRLPE [KRT16_Y417_L421P] , thanks. 0.38

Also need FENGEYIVRQG [PRKG1_Y247_I249V_YF] , thanks. 0.43
